- Target entity: pooled human IgG (human IgG1,2,3 and 4)
Quantity measured: Enzyme Activity Endpoint Assay (purified): Fc (ng/µL)

INSERT INTO results (protein, unit_symbol, numeric_result) VALUES
  ('PRT-484 (protein) MVTSVWTKGVTPPTDFRKIVDGNIAYYHAPYKAGQGWYDITKAFDGGDNLLCGAATAGNMLHWWFDQNKDQIEAYLKEHPEKQKIIFNNQELFDLKAAIDTKDDQTNSELFNYFKEKAFPYLSTKHLGVFPDHVLDMFINGYRLSLTNHGPTPVKEGSKDKRGGIFDAVFTRGVQSKLLTSRHDLKNKTLKEISDLIKQELTEGKALALSHTYANVRINHVINLWGADFDSNGNLEAIYVTDSDTNASIGMKKYFVGVNSAGKVAISAKEIEDDNIGAQVLGLFTLSTGQDIWNQTNLEHHHHHH', 'ng/µL', 277),
  ('PRT-339 (protein) MTITSVWTKGVTPPTPEDFRENNEDVLHAPYLANQGWYDITKAFDGKDNLLCGAATAGNMLHWWFDQNKEEIERYLKKHPEKQKIIFGNQELFDVKAAIDTKDSQTNSKLFDYFRDKAFPNLSARQLGVMPDLVLDMFINGYYLNLGKTQSTDVNRPYQDKDKRGGIFDAVFTRGDQTTLLTARHDLKNKGLNEISDLIKQELTEGKALALSHTYANVSINHVINLWGADFDAEGNLEAIYVTDSDANASIGMKKYFVGRNAHGKVAISAKKIEGDNIGAQVLGLFTLSTGQDQWQKLS', 'ng/µL', 167);

Ref: patent US20250027068
